Values were extracted from PubChem BioAssay AID2060623.

system: 227483-062-R1-J1-PDC complex spheroids with HUVEC/MSC, viability; assay: Anticancer human tumor 227483-062-R1-J1-PDC patient-derived pancreatic carcinoma cell line growth inhibition [CLK]; settings: second compound 0.316 µM; first compound 10 µM; active = viability on the fitted dose curve at most 10% of control; inactive = the rest
Classes used: label 1 (active), label 0 (inactive)

| COMPOUND | CLASS LABEL |
| --- | --- |
| COC1C=CCC(C)C(C)S(=O)(=O)NC(=O)c2ccc3c(c2)N(CC2CCC21)CC1(CCCc2cc(Cl)ccc21)CO3 (stereo unspecified) + CN1CCN(c2cc(C(=O)Nc3cc4cc(-c5cnn(C)c5)ccc4cn3)ccn2)CC1 | label 1 |
| Nc1ccccc1NC(=O)c1ccc(CNC(=O)OCc2cccnc2)cc1 + CN1CCN(c2cc(C(=O)Nc3cc4cc(-c5cnn(C)c5)ccc4cn3)ccn2)CC1 | label 1 |
| CC(Nc1ccc2c(c1)OCCn1cc(N3C(=O)OCC3C(F)F)nc1-2)C(N)=O (stereo unspecified) + CNC(=O)c1ccc(Nc2nc(OC3CCCC3)c3c(-c4ccc5nc(C)oc5c4)c[nH]c3n2)c(OC)c1 | label 0 |
| COc1ccc([C@@H](O)c2cc(-c3ncnc4cc(N5CCOCC5)ccc34)c(F)cc2Cl)nn1 + CN1CCN(c2cc(C(=O)Nc3cc4cc(-c5cnn(C)c5)ccc4cn3)ccn2)CC1 | label 1 |
| CCCS(=O)(=O)Nc1ccc(F)c(C(=O)c2c[nH]c3ncc(-c4ccc(Cl)cc4)cc23)c1F + CN1CCN(c2cc(C(=O)Nc3cc4cc(-c5cnn(C)c5)ccc4cn3)ccn2)CC1 | label 1 |
| COc1ccc([C@@H](O)c2cc(-c3ncnc4cc(N5CCOCC5)ccc34)c(F)cc2Cl)nn1 + CNC(=O)c1ccc(Nc2nc(OC3CCCC3)c3c(-c4ccc5nc(C)oc5c4)c[nH]c3n2)c(OC)c1 | label 0 |

###

system: 227483-062-R1-J1-PDC complex spheroids with HUVEC/MSC, viability; test: Anticancer human tumor 227483-062-R1-J1-PDC cell line growth inhibition [CLK]; settings: second compound 0.316 µM; first compound 0.0316 µM; active = viability on the fitted dose curve at most 10% of control; inactive = the rest;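 also: spheroids exposed to compounds for seven days before readout; percent of DMSO vehicle control luminescence as 100% viability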
Classes used: 1.0 (active), 0.0 (inactive)

| COMPOUND | ASSAYED SYSTEM | CLASS LABEL |
| --- | --- | --- |
| CCCS(=O)(=O)Nc1ccc(F)c(C(=O)c2c[nH]c3ncc(-c4ccc(Cl)cc4)cc23)c1F + CN1CCN(c2cc(C(=O)Nc3cc4cc(-c5cnn(C)c5)ccc4cn3)ccn2)CC1 | 227483-062-R1-J1-PDC complex spheroids with HUVEC/MSC, viability | 1.0 |
| COc1cccc2c1C(=O)c1c(O)c3c(c(O)c1C2=O)CC(O)(C(=O)CO)CC3OC1CC(N)C(O)C(C)O1 (centres undefined) + CNC(=O)c1ccc(Nc2nc(OC3CCCC3)c3c(-c4ccc5nc(C)oc5c4)c[nH]c3n2)c(OC)c1 | 227483-062-R1-J1-PDC complex spheroids with HUVEC/MSC, viability | 0.0 |
| Nc1ccn(C2OC(CO)C(O)C2(F)F)c(=O)n1 (centres undefined) + CNC(=O)c1ccc(Nc2nc(OC3CCCC3)c3c(-c4ccc5nc(C)oc5c4)c[nH]c3n2)c(OC)c1 | 227483-062-R1-J1-PDC complex spheroids with HUVEC/MSC, viability | 0.0 |
| C=CC(=O)N1CCN(c2nc(=O)n(-c3c(C)ccnc3C(C)C)c3nc(-c4c(O)cccc4F)c(F)cc23)C(C)C1 (centres undefined) + CN1CCN(c2cc(C(=O)Nc3cc4cc(-c5cnn(C)c5)ccc4cn3)ccn2)CC1 | 227483-062-R1-J1-PDC complex spheroids with HUVEC/MSC, viability | 1.0 |

###

tested on: 227483-062-R1-J1-PDC complex spheroids with HUVEC/MSC, viability; experiment: Anticancer human tumor 227483-062-R1-J1-PDC cell line growth inhibition [CLK]; details: second compound 0.0316 µM; first compound 0.0316 µM; stronger effect = lower value;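 also: spheroids exposed to compounds for seven days before readout; percent of DMSO vehicle control luminescence as 100% viability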
Reported viability, T/C values for a set of compounds
RESULT TYPE: viability, T/C (%)

| COMPOUND | RESULT TYPE | UNITS | MEASURED RESULT |
| --- | --- | --- | --- |
| COc1ccc([C@@H](O)c2cc(-c3ncnc4cc(N5CCOCC5)ccc34)c(F)cc2Cl)nn1 + CN1CCN(c2cc(C(=O)Nc3cc4cc(-c5cnn(C)c5)ccc4cn3)ccn2)CC1 | viability, T/C | % | 95.2 |
| COc1ccc([C@@H](O)c2cc(-c3ncnc4cc(N5CCOCC5)ccc34)c(F)cc2Cl)nn1 + CNC(=O)c1ccc(Nc2nc(OC3CCCC3)c3c(-c4ccc5nc(C)oc5c4)c[nH]c3n2)c(OC)c1 | viability, T/C | % | 94.6 |
| Cn1ncnc1[C@H]1c2n[nH]c(=O)c3cc(F)cc(c23)N[C@@H]1c1ccc(F)cc1 + CN1CCN(c2cc(C(=O)Nc3cc4cc(-c5cnn(C)c5)ccc4cn3)ccn2)CC1 | viability, T/C | % | 95.3 |
| CCCS(=O)(=O)Nc1ccc(F)c(C(=O)c2c[nH]c3ncc(-c4ccc(Cl)cc4)cc23)c1F + CN1CCN(c2cc(C(=O)Nc3cc4cc(-c5cnn(C)c5)ccc4cn3)ccn2)CC1 | viability, T/C | % | 115 |

###

tested on: 227483-062-R1-J1-PDC complex spheroids with HUVEC/MSC, viability; assay: Anticancer human tumor 227483-062-R1-J1-PDC cell line growth inhibition [CLK]; details: second compound 10 µM; first compound 0.1 µM; stronger effect = lower value;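 also: spheroids exposed to compounds for seven days before readout; percent of DMSO vehicle control luminescence as 100% viability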

| MOLECULE | viability, T/C, % |
| --- | --- |
| C=C(F)C(=O)N1CCN(c2nc(OCC3CCCN3C)nc3c2CCN(c2cccc4cccc(Cl)c24)C3)CC1CC#N (stereo not drawn) + CN1CCN(c2cc(C(=O)Nc3cc4cc(-c5cnn(C)c5)ccc4cn3)ccn2)CC1 | 1.84 |
| CCN1CCN(Cc2ccc(Nc3ncc(F)c(-c4cc(F)c5nc(C)n(C(C)C)c5c4)n3)nc2)CC1 + CN1CCN(c2cc(C(=O)Nc3cc4cc(-c5cnn(C)c5)ccc4cn3)ccn2)CC1 | 4.63 |
| CC(CO)NC(=O)c1cc(-c2ccc(Cl)cc2)nn(-c2cnn(C)c2)c1=O (stereo not drawn) + CN1CCN(c2cc(C(=O)Nc3cc4cc(-c5cnn(C)c5)ccc4cn3)ccn2)CC1 | 2.72 |

###

system: 227483-062-R1-J1-PDC complex spheroids with HUVEC/MSC, viability; assay: Anticancer human tumor 227483-062-R1-J1-PDC cell line growth inhibition [CLK]; settings: second compound 10 µM; first compound 0.1 µM; stronger effect = lower value;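 also: spheroids exposed to compounds for seven days before readout; percent of DMSO vehicle control luminescence as 100% viability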

| COMPOUND | viability, T/C, % |
| --- | --- |
| COc1cccc2c1C(=O)c1c(O)c3c(c(O)c1C2=O)CC(O)(C(=O)CO)CC3OC1CC(N)C(O)C(C)O1 (configuration not stated) + CN1CCN(c2cc(C(=O)Nc3cc4cc(-c5cnn(C)c5)ccc4cn3)ccn2)CC1 | 1.75 |
| CCc1c2c(nc3ccc(O)cc13)-c1cc3c(c(=O)n1C2)COC(=O)[C@]3(O)CC + CN1CCN(c2cc(C(=O)Nc3cc4cc(-c5cnn(C)c5)ccc4cn3)ccn2)CC1 | 2.28 |
| Nc1ccn(C2OC(CO)C(O)C2(F)F)c(=O)n1 (configuration not stated) + CNC(=O)c1ccc(Nc2nc(OC3CCCC3)c3c(-c4ccc5nc(C)oc5c4)c[nH]c3n2)c(OC)c1 | 22 |
| COC1C=CCC(C)C(C)S(=O)(=O)NC(=O)c2ccc3c(c2)N(CC2CCC21)CC1(CCCc2cc(Cl)ccc21)CO3 (configuration not stated) + CNC(=O)c1ccc(Nc2nc(OC3CCCC3)c3c(-c4ccc5nc(C)oc5c4)c[nH]c3n2)c(OC)c1 | 34.4 |
| CC(CO)NC(=O)c1cc(-c2ccc(Cl)cc2)nn(-c2cnn(C)c2)c1=O (configuration not stated) + CNC(=O)c1ccc(Nc2nc(OC3CCCC3)c3c(-c4ccc5nc(C)oc5c4)c[nH]c3n2)c(OC)c1 | 41.8 |
| COc1c(OCCCN2CCOCC2)ccc2c3n(c(=NC(=O)c4cnc(N)nc4)nc12)CCN3 + CN1CCN(c2cc(C(=O)Nc3cc4cc(-c5cnn(C)c5)ccc4cn3)ccn2)CC1 | 1.13 |
| CC1COCCN1c1cc(C2(S(C)(=N)=O)CC2)nc(-c2ccnc3[nH]ccc23)n1 (configuration not stated) + CNC(=O)c1ccc(Nc2nc(OC3CCCC3)c3c(-c4ccc5nc(C)oc5c4)c[nH]c3n2)c(OC)c1 | 34.6 |
